Attribution: paper PMC9369069

Biological target: L-type amino acid transporter 1 (LAT1) (Homo sapiens)
Construct: gene SLC7A5
Sequence (Q01650 whole entry): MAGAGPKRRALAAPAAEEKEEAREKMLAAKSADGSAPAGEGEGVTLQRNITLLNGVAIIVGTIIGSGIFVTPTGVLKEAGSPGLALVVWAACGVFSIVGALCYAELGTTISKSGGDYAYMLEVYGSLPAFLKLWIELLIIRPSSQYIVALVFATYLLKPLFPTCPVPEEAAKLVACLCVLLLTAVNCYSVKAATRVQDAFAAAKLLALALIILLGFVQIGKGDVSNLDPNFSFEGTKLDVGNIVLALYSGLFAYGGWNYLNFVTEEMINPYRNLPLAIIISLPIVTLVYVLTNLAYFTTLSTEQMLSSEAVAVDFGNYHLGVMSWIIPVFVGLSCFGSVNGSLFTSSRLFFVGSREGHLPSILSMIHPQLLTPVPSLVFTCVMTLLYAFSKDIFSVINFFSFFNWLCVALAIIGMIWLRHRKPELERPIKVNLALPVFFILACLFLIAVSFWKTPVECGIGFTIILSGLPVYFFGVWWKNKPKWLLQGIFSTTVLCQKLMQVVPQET
Sequence (P08195 103-630 partner): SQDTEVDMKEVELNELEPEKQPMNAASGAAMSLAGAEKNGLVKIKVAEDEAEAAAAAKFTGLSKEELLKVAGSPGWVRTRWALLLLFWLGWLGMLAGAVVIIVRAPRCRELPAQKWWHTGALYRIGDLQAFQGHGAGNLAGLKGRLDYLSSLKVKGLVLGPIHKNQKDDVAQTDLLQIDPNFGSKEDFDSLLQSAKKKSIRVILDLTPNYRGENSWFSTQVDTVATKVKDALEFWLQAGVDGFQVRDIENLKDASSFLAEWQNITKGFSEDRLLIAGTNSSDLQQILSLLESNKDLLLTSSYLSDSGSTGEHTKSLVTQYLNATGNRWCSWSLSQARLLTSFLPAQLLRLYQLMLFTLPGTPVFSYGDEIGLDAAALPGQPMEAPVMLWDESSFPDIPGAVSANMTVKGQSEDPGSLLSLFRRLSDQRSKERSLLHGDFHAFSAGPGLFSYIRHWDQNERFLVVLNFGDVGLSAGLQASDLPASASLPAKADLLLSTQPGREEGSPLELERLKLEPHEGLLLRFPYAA
Assay: cell-based
Conditions: read-out: IC50
measure: IC50 (µM)
Return type: number; implicit unit µM.

Param readout = IC50; param system = L-type amino acid transporter 1 (LAT1) (Homo sapiens); param query = N[C@@H](Cc1ccccc1)C(=O)O ; response: value
96.8

---

# pIC50 annotations
Target: L-type amino acid transporter 1 (LAT1) (Homo sapiens)
Construct: gene SLC7A5
Assay: cell-based
// pIC50: -log10(molar conc.)

Reported pIC50 for Oc1ccc2c(c1)OCO2 : what is it?
2.32

New cases:
Reported pIC50 for N[C@@H](Cc1ccc(NC(=O)Oc2ccc3c(c2)OCO3)cc1)C(=O)O : what is it?
3.20
